Ref: paper PMC13541613

Molecular target: ZNF721 full-length (Homo sapiens, UniProt Q8TF20-2 1-923)
Sequence (Q8TF20 other isoform, or with tags, fused parts or gaps): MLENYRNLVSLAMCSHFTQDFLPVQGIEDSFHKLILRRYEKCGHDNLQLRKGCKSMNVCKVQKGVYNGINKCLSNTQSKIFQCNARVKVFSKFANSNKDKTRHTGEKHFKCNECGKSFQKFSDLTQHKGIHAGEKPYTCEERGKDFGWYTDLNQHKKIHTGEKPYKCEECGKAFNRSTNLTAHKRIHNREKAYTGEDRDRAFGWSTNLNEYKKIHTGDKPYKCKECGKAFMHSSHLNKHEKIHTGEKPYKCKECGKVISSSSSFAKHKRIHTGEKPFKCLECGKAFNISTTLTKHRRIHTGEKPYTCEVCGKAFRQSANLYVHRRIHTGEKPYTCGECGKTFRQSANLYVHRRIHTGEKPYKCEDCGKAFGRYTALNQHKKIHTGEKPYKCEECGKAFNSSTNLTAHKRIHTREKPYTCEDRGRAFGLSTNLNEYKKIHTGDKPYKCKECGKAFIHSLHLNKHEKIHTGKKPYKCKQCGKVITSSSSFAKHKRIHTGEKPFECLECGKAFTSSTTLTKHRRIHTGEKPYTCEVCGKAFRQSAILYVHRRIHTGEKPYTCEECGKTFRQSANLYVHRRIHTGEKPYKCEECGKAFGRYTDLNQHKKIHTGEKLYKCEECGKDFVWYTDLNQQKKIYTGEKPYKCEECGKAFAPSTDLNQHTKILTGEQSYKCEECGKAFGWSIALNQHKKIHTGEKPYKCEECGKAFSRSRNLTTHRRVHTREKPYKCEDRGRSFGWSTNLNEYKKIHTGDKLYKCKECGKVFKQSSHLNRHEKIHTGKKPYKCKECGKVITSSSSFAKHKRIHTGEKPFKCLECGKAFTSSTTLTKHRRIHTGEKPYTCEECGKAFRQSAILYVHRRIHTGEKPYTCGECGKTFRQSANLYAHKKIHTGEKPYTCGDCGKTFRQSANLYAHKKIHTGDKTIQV
Assay: HT-SELEX; 20 mM HEPES pH 7, 140 mM KCl, 5 mM NaCl, 1 mM K2HPO4, 2 mM MgSO4, 100 uM EGTA, ZnSO4, 0.1% Tween20; room temperature, 1 h; high values mean tight binding
Details: protein: ivt; tags: eGFP (N-terminal); dsDNA, one strand shown
Measurement Kind: binding signal (relative 10-mer count)
# unit: relative 10-mer count | format: bare number

Recorded binding signal, per entry:
input_sequence=CCCCCCCACA recorded_result=0.124
input_sequence=ACCCGCCCCA recorded_result=0.109
input_sequence=AGCATCCCCA recorded_result=0.136
input_sequence=AAAAAAGGCA recorded_result=0.18
input_sequence=CCCCGCCTCC recorded_result=0.175

Endpoint output: binding signal of "GCCCCAACCC" . Value?
0.105

Endpoint output: binding signal of "AAAGAAGCTA" . Value?
0.132
